Molecular target: biotinylated human DLL3 protein expressed as a human IgG1 fusion protein (human) (UniProt Q9NYJ7)
Sequence (Q9NYJ7 other isoform, or with tags, fused parts or gaps): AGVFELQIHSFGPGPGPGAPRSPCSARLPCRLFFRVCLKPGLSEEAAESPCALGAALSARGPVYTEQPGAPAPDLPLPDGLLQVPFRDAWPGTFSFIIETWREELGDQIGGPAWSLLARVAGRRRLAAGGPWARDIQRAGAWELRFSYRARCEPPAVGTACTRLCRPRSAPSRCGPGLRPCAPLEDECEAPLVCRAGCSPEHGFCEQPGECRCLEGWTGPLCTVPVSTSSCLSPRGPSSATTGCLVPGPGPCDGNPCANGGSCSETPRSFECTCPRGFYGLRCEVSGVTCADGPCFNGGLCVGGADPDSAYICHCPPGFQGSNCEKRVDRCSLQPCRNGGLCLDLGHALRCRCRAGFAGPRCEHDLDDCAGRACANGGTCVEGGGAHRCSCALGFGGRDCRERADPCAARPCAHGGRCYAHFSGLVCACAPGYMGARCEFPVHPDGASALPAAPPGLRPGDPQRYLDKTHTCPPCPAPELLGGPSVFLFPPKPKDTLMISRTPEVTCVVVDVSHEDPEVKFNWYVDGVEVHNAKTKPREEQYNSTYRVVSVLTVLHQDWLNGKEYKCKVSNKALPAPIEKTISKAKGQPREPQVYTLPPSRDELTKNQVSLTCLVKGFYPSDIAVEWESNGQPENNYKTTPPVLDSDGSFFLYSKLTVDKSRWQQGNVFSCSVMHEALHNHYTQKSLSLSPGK
Assay: Octet BLI; biotinylated huDLL3-IgG1 fusion on streptavidin tips; single 50 nM; conditioned medium
Field: pKd. Provide a value for each of the binders that follow.
Quick note: pKd means taking -log10 of the concentration in moles per liter.

Looking up anti-DLL3 trispecific protein 4F04 (protein, part only; not given: anti-CD3 fragment and anti-albumin sdAb, part only) chain, part: EVQLVESGGGLVQPGGSLTLSCAASRSSVSFLSMAWYRQAPGKKRELVAGISTDGSTDYIDSVKGRFTISRDNAKNSVYLQMNSLRAEDTAVYYCYAYRWLTRYTYWGQGTLVTVSSGGGGSGGGSGGGGSGGGSHHHHHH , I found its pKd recorded as 8.01

Looking up anti-DLL3 trispecific protein 2B05 (protein, part only; not given: anti-CD3 fragment and anti-albumin domain, part only) chain, part: EVQLVESGGGLVQPGGSLTLSCVASGTTSSINAMGWYRRAPGKQRELVAGISSDGTKVYADSVKGRFTISRDNAKNSVYLQMNSLRAEDTAVYYCYYFHTVSGSSMRYWGQGTLVTVSSGGGGSGGGSGGGGSGGGSHHHHHH , I found its pKd recorded as 8.13

Looking up anti-DLL3 trispecific protein 1B010 (protein, part only; not given: CD3 fragment and albumin sdAb, part only) chain, part: EVQLVESGGGLVQPGGSLTLSCVASGSTSRINAMGWYRRAPGKQRELVAGISSDGSKVYADSVKGRFTISRDNAKNSVYLQMNSLRAEDTAVYYCYYFRTKSGSSMRYWGQGTLVTVSSGGGGSGGGSGGGGSGGGSHHHHHH , I found its pKd recorded as 8.17

Looking up anti-DLL3 trispecific protein 2F07 (protein, part only; not given: anti-CD3 fragment and anti-albumin domain, part only) chain, part: EVQLVESGGGLVQPGGSLTLSCVASGSTSSINAVGWYRRAPGKQRELVAGISSDGSSVYADSVKGRFTISRDNAKNSVYLQMNSLRAEDTAVYYCYYFRTVSTSSMRYWGQGTLVTVSSGGGGSGGGSGGGGSGGGSHHHHHH , I found its pKd recorded as 8.10
